FYI, the data here is from ChEMBL document CHEMBL1139338.

Assay: Inhibition of rabbit carboxylesterase; note: time not given here
Design: species or system Oryctolagus cuniculus
Field: pKi. Provide a value for each of the compounds that follow.

Qu. Provide one value: measured pKi of O=C(C(=O)c1cccc([N+](=O)[O-])c1)c1cccc([N+](=O)[O-])c1
Ans. 6.57

Qu. Tell us which pKi value is on record for O=C(C(=O)c1ccsc1)c1ccsc1
Ans. 5.62

Qu. Provide one value: measured pKi of O=C(C(=O)c1ccc(Br)c([N+](=O)[O-])c1)c1ccc(Br)c([N+](=O)[O-])c1
Ans. 8.06

Qu. Input O=C(C(=O)c1ccc([N+](=O)[O-])cc1)c1ccccc1 , output reported pKi.
Ans. 7.66
